- Tested on: NCI-H23
- protocol: Antiproliferative activity against human NCI-H23 cells assessed as growth inhibition after 48 hrs by sulforhodamine B assay
- Assay type: functional
- reported_conditions: NCI-H23, 48 h
metric_name: GI50 (nM)
Give the quantity in nM, number only.

// known answers, use as guide
chemical_smiles=CNC(=O)c1cc(Oc2ccc3nc(NC(=O)c4cc(C(F)(F)F)cc(C(F)(F)F)c4)sc3c2)ccn1 numeric_value=3370
chemical_smiles=CNC(=O)c1cc(Oc2ccc(NC(=O)Nc3ccc(Cl)c(C(F)(F)F)c3)cc2)ccn1 numeric_value=2000

QUERY: Fill in GI50 for "CNC(=O)c1cc(Oc2ccc3nc(NC(=O)Nc4ccc(Cl)c(C(F)(F)F)c4)sc3c2)ccn1" tested with NCI-H23.
RESULT: 2480

QUERY: Fill in GI50 for "CNC(=O)c1cc(Oc2ccc3nc(NC(=O)Nc4ccc(Cl)c(Cl)c4)sc3c2)ccn1" tested with NCI-H23.
RESULT: 2780

QUERY: Fill in GI50 for "CNC(=O)c1cc(Oc2ccc3nc(NC(=O)Nc4cc(C(F)(F)F)cc(C(F)(F)F)c4)sc3c2)ccn1" tested with NCI-H23.
RESULT: 573

----------
- Tested on: SK-MEL-5
- protocol: Antiproliferative activity against human SK-MEL-5 cells assessed as growth inhibition after 48 hrs by sulforhodamine B assay
- Assay type: functional
- reported_conditions: SK-MEL-5, 48 h, read-out: LC50 (the source's name)
metric_name: CC50 (µM)
Give the quantity in µM, number only.

chemical_smiles=CNC(=O)c1cc(Oc2ccc3nc(NC(=O)c4cc(C(F)(F)F)cc(C(F)(F)F)c4)sc3c2)ccn1 metric_name=CC50 numeric_value=7.87
chemical_smiles=CNC(=O)c1cc(Oc2ccc(NC(=O)Nc3ccc(Cl)c(C(F)(F)F)c3)cc2)ccn1 metric_name=CC50 numeric_value=5.01

Alright, here's another compound for you.
QUERY: Return CC50 (reported value) for this compound: "CNC(=O)c1cc(Oc2ccc3nc(NC(=O)Nc4cc(C(F)(F)F)cc(C(F)(F)F)c4)sc3c2)ccn1"
RESULT: 5.87

----------
# maps each entry to its TGI
- Tested on: A549
- protocol: Antiproliferative activity against human A549/ATCC cells assessed as growth inhibition after 48 hrs by sulforhodamine B assay
- Format: functional
- reported_conditions: A549, 48 h
Give the quantity in µM, number only.

// known answers, use as guide
molecule=CNC(=O)c1cc(Oc2ccc3nc(NC(=O)Nc4cc(C(F)(F)F)cc(C(F)(F)F)c4)sc3c2)ccn1 numeric_value=2.67
molecule=CNC(=O)c1cc(Oc2ccc3nc(NC(=O)Nc4ccc(Cl)c(Cl)c4)sc3c2)ccn1 numeric_value=3.99
molecule=CNC(=O)c1cc(Oc2ccc3nc(NC(=O)c4cc(C(F)(F)F)cc(C(F)(F)F)c4)sc3c2)ccn1 numeric_value=14.6

QUERY: Fill in TGI for CNC(=O)c1cc(Oc2ccc(NC(=O)Nc3ccc(Cl)c(C(F)(F)F)c3)cc2)ccn1 [SORAFENIB] tested with A549.
RESULT: 12.6

----------
- protocol: Antiproliferative activity against human OVCAR8 cells assessed as growth inhibition after 48 hrs by sulforhodamine B assay
- Format: functional
- reported_conditions: OVCAR-8, 48 h
metric_name: LC50 (µM)
Give the quantity in µM, number only.

// known answers, use as guide
chemical_smiles=CNC(=O)c1cc(Oc2ccc3nc(NC(=O)c4cc(C(F)(F)F)cc(C(F)(F)F)c4)sc3c2)ccn1 readout_unit=µM numeric_value=69.9
chemical_smiles=CNC(=O)c1cc(Oc2ccc3nc(NC(=O)Nc4ccc(Cl)c(Cl)c4)sc3c2)ccn1 readout_unit=µM numeric_value=73.9

QUERY: Return LC50 (reported value) for this compound: "CNC(=O)c1cc(Oc2ccc3nc(NC(=O)Nc4cc(C(F)(F)F)cc(C(F)(F)F)c4)sc3c2)ccn1"
RESULT: 5.47

----------
# maps each entry to its LC50
- protocol: Antiproliferative activity against human HCT15 cells assessed as growth inhibition after 48 hrs by sulforhodamine B assay
- Format: functional
- reported_conditions: HCT-15, 48 h

chemical_smiles=CNC(=O)c1cc(Oc2ccc3nc(NC(=O)c4cc(C(F)(F)F)cc(C(F)(F)F)c4)sc3c2)ccn1 result="> 100 µM"

QUERY: Return LC50 (reported value) for this molecule: "CNC(=O)c1cc(Oc2ccc3nc(NC(=O)Nc4cc(C(F)(F)F)cc(C(F)(F)F)c4)sc3c2)ccn1"
RESULT: 7.32 µM

QUERY: Return LC50 (reported value) for this molecule: "CNC(=O)c1cc(Oc2ccc3nc(NC(=O)Nc4ccc(Cl)c(Cl)c4)sc3c2)ccn1"
RESULT: > 100 µM

QUERY: Return LC50 (reported value) for this molecule: "CNC(=O)c1cc(Oc2ccc3nc(NC(=O)Nc4ccc(Cl)c(C(F)(F)F)c4)sc3c2)ccn1"
RESULT: > 100 µM

----------
- Tested on: U-251
- protocol: Antiproliferative activity against human U251 cells assessed as cell growth at 10^-7 M after 48 hrs by sulforhodamine B assay
- Type: functional
- reported_conditions: U-251, 48 h, read-out: Activity
# maps each entry to its growth at 0.1 µM
Give the quantity in %, number only.

QUERY: Return growth at 0.1 µM (reported value) for this molecule: "CNC(=O)c1cc(Oc2ccc3nc(NC(=O)Nc4ccc(Cl)c(C(F)(F)F)c4)sc3c2)ccn1"
RESULT: 101

----------
# maps each entry to its growth at 1 µM
- protocol: Antiproliferative activity against human LOXIMVI cells assessed as cell growth at 10^-6 M after 48 hrs by sulforhodamine B assay
- Assay type: functional
- reported_conditions: LOX IMVI, read-out: Activity
Give the quantity in %, number only.

// known answers, use as guide
chemical_smiles=CNC(=O)c1cc(Oc2ccc3nc(NC(=O)Nc4cc(C(F)(F)F)cc(C(F)(F)F)c4)sc3c2)ccn1 numeric_value=63
chemical_smiles=CNC(=O)c1cc(Oc2ccc3nc(NC(=O)Nc4ccc(Cl)c(C(F)(F)F)c4)sc3c2)ccn1 numeric_value=87
chemical_smiles=CNC(=O)c1cc(Oc2ccc3nc(NC(=O)Nc4ccc(Cl)c(Cl)c4)sc3c2)ccn1 numeric_value=95

Alright, here's another compound for you.
QUERY: Return growth at 1 µM (reported value) for this compound: "CNC(=O)c1cc(Oc2ccc3nc(NC(=O)c4cc(C(F)(F)F)cc(C(F)(F)F)c4)sc3c2)ccn1"
RESULT: 94

----------
- protocol: Antiproliferative activity against human HCC2998 cells assessed as cell growth at 10^-6 M after 48 hrs by sulforhodamine B assay
- Assay type: functional
- reported_conditions: HCC 2998, 48 h, read-out: Activity
metric_name: growth at 1 µM (%)
Give the quantity in %, number only.

chemical_smiles=CNC(=O)c1cc(Oc2ccc3nc(NC(=O)Nc4ccc(Cl)c(C(F)(F)F)c4)sc3c2)ccn1 numeric_value=94
chemical_smiles=CNC(=O)c1cc(Oc2ccc3nc(NC(=O)Nc4ccc(Cl)c(Cl)c4)sc3c2)ccn1 numeric_value=100
chemical_smiles=CNC(=O)c1cc(Oc2ccc3nc(NC(=O)c4cc(C(F)(F)F)cc(C(F)(F)F)c4)sc3c2)ccn1 numeric_value=102

QUERY: Return growth at 1 µM (reported value) for this compound: "CNC(=O)c1cc(Oc2ccc3nc(NC(=O)Nc4cc(C(F)(F)F)cc(C(F)(F)F)c4)sc3c2)ccn1"
RESULT: 66

----------
- System: HT-29
- protocol: Antiproliferative activity against human HT-29 cells assessed as cell growth at 10^-7 M after 48 hrs by sulforhodamine B assay
- Type: functional
- reported_conditions: HT-29, 48 h, read-out: Activity
metric_name: growth at 0.1 µM (%)
Give the quantity in %, number only.

// known answers, use as guide
chemical_smiles=CNC(=O)c1cc(Oc2ccc3nc(NC(=O)c4cc(C(F)(F)F)cc(C(F)(F)F)c4)sc3c2)ccn1 tested_target=HT-29 readout_unit=% numeric_value=107
chemical_smiles=CNC(=O)c1cc(Oc2ccc3nc(NC(=O)Nc4ccc(Cl)c(C(F)(F)F)c4)sc3c2)ccn1 tested_target=HT-29 readout_unit=% numeric_value=103
chemical_smiles=CNC(=O)c1cc(Oc2ccc3nc(NC(=O)Nc4cc(C(F)(F)F)cc(C(F)(F)F)c4)sc3c2)ccn1 tested_target=HT-29 readout_unit=% numeric_value=97

Alright, here's another compound for you.
QUERY: Return growth at 0.1 µM (reported value) for this compound: "CNC(=O)c1cc(Oc2ccc3nc(NC(=O)Nc4ccc(Cl)c(Cl)c4)sc3c2)ccn1"
RESULT: 105

----------
- protocol: Antiproliferative activity against human SF268 cells assessed as cell growth at 10^-7 M after 48 hrs by sulforhodamine B assay
- Format: functional
- reported_conditions: SF-268, 48 h, read-out: Activity
metric_name: growth at 0.1 µM (%)
Give the quantity in %, number only.

chemical_smiles=CNC(=O)c1cc(Oc2ccc3nc(NC(=O)c4cc(C(F)(F)F)cc(C(F)(F)F)c4)sc3c2)ccn1 metric_name="growth at 0.1 µM" numeric_value=97
chemical_smiles=CNC(=O)c1cc(Oc2ccc3nc(NC(=O)Nc4cc(C(F)(F)F)cc(C(F)(F)F)c4)sc3c2)ccn1 metric_name="growth at 0.1 µM" numeric_value=90
chemical_smiles=CNC(=O)c1cc(Oc2ccc3nc(NC(=O)Nc4ccc(Cl)c(Cl)c4)sc3c2)ccn1 metric_name="growth at 0.1 µM" numeric_value=99

Alright, here's another molecule for you.
QUERY: Return growth at 0.1 µM (reported value) for this molecule: "CNC(=O)c1cc(Oc2ccc3nc(NC(=O)Nc4ccc(Cl)c(C(F)(F)F)c4)sc3c2)ccn1"
RESULT: 101

Data provenance is ChEMBL document CHEMBL3797052.
